Target desc: Factor X (FX), P00742
Sequence (P00742 whole entry, looked up): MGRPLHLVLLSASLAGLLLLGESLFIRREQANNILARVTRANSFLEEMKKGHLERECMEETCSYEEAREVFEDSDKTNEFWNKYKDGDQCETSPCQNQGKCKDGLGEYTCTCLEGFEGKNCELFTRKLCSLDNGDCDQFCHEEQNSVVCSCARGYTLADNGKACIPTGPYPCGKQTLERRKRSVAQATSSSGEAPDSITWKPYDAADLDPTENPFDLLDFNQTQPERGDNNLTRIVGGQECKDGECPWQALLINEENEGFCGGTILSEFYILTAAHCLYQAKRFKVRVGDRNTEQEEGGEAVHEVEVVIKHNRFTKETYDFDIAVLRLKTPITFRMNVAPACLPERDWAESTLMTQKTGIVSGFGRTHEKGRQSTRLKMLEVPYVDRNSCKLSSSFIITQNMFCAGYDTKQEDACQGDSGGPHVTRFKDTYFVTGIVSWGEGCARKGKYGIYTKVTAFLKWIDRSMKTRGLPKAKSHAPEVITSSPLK
Value type: kcat of FX activation by FIXa (Xase complex with FVIIIa, PC/PS vesicles, Ca2+) (s⁻¹)
Reply numerically in s⁻¹, unit not repeated.

// query Dear colleague, I am looking for the recorded kcat of FX activation by FIXa (Xase complex with FVIIIa, PC/PS vesicles, Ca2+) of the following protein: FIXa-Y155F/K247N/N249S/N260S (protein) chain 1: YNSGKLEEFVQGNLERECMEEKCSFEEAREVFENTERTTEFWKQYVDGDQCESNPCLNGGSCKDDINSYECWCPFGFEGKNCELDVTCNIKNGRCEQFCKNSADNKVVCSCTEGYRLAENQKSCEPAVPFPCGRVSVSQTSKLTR chain 2: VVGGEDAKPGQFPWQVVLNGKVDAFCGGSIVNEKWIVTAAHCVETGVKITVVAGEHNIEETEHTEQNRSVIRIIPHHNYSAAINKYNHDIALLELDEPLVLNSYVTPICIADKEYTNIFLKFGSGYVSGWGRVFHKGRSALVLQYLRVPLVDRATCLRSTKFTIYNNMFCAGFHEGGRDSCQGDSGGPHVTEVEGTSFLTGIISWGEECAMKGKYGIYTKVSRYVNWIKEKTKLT
// result 1.8

// query Further, for FIXa-D104N/K106S/K228N/K247N/N249S/R318Y/R338E/R403E/E410N (protein) chain 1: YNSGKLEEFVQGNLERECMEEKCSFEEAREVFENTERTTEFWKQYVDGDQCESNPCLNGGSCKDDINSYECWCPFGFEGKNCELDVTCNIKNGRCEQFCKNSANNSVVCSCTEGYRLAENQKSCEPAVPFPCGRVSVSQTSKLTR chain 2: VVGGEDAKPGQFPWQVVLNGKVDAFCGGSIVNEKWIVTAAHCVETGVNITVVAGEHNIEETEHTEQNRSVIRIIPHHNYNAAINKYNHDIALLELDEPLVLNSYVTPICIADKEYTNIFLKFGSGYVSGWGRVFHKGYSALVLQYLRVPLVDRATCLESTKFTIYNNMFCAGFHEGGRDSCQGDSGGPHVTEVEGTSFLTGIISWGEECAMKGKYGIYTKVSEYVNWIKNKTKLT ?
// result 6.1
